- assay.remarks: Half life in Cell media
- Assay type: ADME
Recorded half-life values for a group of compounds are listed next.
Provide the reading as a plain figure in min.

As a guide, the following entries are already answered.
CCC(=O)NCCOCCOC(=O)Oc1cc(C)cc(C)c1C(C)(C)CC(=O)NC1CC(O[C@H]2C[C@](O)(C(C)=O)Cc3c(O)c4c(c(O)c32)C(=O)c2c(OC)cccc2C4=O)OC(C)C1O (stereo not given in full)    2280
CCC(=O)NC(C)C(=O)Oc1c(C)ccc(C)c1C(C)(C)CC(=O)NC1CC(O[C@H]2C[C@](O)(C(C)=O)Cc3c(O)c4c(c(O)c32)C(=O)c2c(OC)cccc2C4=O)OC(C)C1O (stereo not given in full)    2160
CCC(=O)NCCC(=O)Oc1cc(C)cc(C)c1C(C)(C)CC(=O)NC1CC(O[C@H]2C[C@](O)(C(C)=O)Cc3c(O)c4c(c(O)c32)C(=O)c2c(OC)cccc2C4=O)OC(C)C1O (stereo not given in full)    4800

Lab note: CCC(=O)NCCC(=O)Oc1c(C)ccc(C)c1C(C)(C)CC(=O)NC1CC(O[C@H]2C[C@](O)(C(C)=O)Cc3c(O)c4c(c(O)c32)C(=O)c2c(OC)cccc2C4=O)OC(C)C1O (stereo not given in full) gave half-life of 5640

Lab note: CCC(=O)NC(C)C(=O)Oc1cc(C)cc(C)c1C(C)(C)CC(=O)NC1CC(O[C@H]2C[C@](O)(C(C)=O)Cc3c(O)c4c(c(O)c32)C(=O)c2c(OC)cccc2C4=O)OC(C)C1O (stereo not given in full) gave half-life of 840

====

- assay.remarks: Half life in Rat plasma
- Assay type: ADME
reported.property: half-life (h)
Provide the reading as a plain figure in h.

As a guide, the following entries are already answered.
CCC(=O)NC(C)C(=O)Oc1c(C)ccc(C)c1C(C)(C)CC(=O)NC1CC(O[C@H]2C[C@](O)(C(C)=O)Cc3c(O)c4c(c(O)c32)C(=O)c2c(OC)cccc2C4=O)OC(C)C1O (stereo not given in full)    21
CCC(=O)NCCOCCOC(=O)Oc1cc(C)cc(C)c1C(C)(C)CC(=O)NC1CC(O[C@H]2C[C@](O)(C(C)=O)Cc3c(O)c4c(c(O)c32)C(=O)c2c(OC)cccc2C4=O)OC(C)C1O (stereo not given in full)    1.1
CCC(=O)NC(C)C(=O)Oc1cc(C)cc(C)c1C(C)(C)CC(=O)NC1CC(O[C@H]2C[C@](O)(C(C)=O)Cc3c(O)c4c(c(O)c32)C(=O)c2c(OC)cccc2C4=O)OC(C)C1O (stereo not given in full)    1.9
CCC(=O)NCCC(=O)Oc1c(C)ccc(C)c1C(C)(C)CC(=O)NC1CC(O[C@H]2C[C@](O)(C(C)=O)Cc3c(O)c4c(c(O)c32)C(=O)c2c(OC)cccc2C4=O)OC(C)C1O (stereo not given in full)    8

Could you now consider this next molecule?
Lab note: CCC(=O)NCCC(=O)Oc1cc(C)cc(C)c1C(C)(C)CC(=O)NC1CC(O[C@H]2C[C@](O)(C(C)=O)Cc3c(O)c4c(c(O)c32)C(=O)c2c(OC)cccc2C4=O)OC(C)C1O (stereo not given in full) gave half-life of 0.2
